Target: UniProt:P18031
Sequence (P18031 whole entry): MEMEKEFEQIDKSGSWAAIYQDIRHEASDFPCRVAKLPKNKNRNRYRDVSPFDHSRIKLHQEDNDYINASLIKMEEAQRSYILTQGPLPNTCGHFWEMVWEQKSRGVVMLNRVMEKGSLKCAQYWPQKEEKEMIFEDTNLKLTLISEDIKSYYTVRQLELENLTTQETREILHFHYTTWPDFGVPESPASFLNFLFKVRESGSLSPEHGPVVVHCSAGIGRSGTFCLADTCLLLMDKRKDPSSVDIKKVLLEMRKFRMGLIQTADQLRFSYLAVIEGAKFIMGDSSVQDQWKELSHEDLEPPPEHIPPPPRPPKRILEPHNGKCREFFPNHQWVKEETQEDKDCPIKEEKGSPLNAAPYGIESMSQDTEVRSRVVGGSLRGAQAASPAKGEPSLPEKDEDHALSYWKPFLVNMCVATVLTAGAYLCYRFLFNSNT
measurement.label: IC50 (µM)

# annotated cases, reported IC50 shown
smiles.string | measurement.target | IC50, µM
O=C(O)c1cc(Cc2ccccc2)cc(Br)c1O | UniProt:P18031 | 153
O=C(O)c1cc(Cc2ccccc2)ccc1O | UniProt:P18031 | 1180

I: O=C(O)c1cccc(-c2ccccc2)c1O
II: O=C(O)c1cc(-c2ccco2)cc(Cc2cc(-c3ccco3)cc(C(=O)O)c2O)c1O
Problem: Given the entries I and II , determine which has the lower reported IC50. In your reply, give the label of the chosen option.
II

---

Target: Tyrosine-protein phosphatase non-receptor type 6 (Homo sapiens)
Sequence (P29350 whole entry, the tested form may be a part): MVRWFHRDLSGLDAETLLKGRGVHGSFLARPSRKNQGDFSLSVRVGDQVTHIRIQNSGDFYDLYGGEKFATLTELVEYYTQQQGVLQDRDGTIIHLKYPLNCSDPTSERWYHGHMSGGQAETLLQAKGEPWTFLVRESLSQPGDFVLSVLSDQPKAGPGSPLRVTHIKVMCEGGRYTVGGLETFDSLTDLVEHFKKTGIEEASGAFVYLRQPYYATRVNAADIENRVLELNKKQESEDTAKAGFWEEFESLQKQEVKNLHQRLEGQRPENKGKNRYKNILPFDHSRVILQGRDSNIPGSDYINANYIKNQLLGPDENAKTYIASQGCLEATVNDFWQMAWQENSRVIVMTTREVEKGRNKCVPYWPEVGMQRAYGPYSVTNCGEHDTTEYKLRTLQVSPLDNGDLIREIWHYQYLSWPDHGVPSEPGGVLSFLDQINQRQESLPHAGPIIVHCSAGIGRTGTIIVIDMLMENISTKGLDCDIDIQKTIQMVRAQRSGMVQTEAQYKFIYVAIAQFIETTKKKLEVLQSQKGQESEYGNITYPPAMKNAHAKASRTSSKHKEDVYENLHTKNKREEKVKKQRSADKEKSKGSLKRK
Test: Inhibition of SHP-1 catalytic domain
pIC50: −log10 of the molar value.
measurement.label: pIC50

a: O=C(O)c1cc(Cc2ccccc2)cc(-c2ccccc2)c1O
b: O=C(O)c1cc(-c2ccccc2)cc(Cc2cc(-c3ccccc3)cc(C(=O)O)c2O)c1O
Hello, I am sorting some records. Could you say if a or b has the smaller pIC50 value? Indicate your choice by writing its label.
a
(a: 3.89, b: 4.43)
